- MEASUREMENT TARGET: EGFR (Homo sapiens, UniProt P00533)
- Sequence (P00533 712-979 limits assumed): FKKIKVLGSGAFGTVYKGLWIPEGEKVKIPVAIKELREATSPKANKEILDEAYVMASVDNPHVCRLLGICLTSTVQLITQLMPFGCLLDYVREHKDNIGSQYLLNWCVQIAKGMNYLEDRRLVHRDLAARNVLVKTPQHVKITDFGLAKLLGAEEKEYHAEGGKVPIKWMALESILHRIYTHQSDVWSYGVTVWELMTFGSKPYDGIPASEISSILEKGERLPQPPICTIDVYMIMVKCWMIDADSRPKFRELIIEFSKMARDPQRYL
- ASSAY EXPLANATION: In vitro inhibition of EGFR, Flash Plate or glass-fiber filter technology (C2)
- Format: biochemical
- Parameters: 0.5 μg EGFR-kinase domain/well
- CONDITION NOTES: EGFR-kinase domain, 5.0 μM unlabeled ATP, read-out: Kinase activity.(C2): pIC50 (converted)
OUTCOME MEASURE: IC50 (nM)

I. COc1cc2ncnc3c2cc1OCCCCCCC(NC(=O)OC(C)(C)C)C(=O)NCc1ccc(Cl)cc1N3 (stereo not shown)
II. COc1cc2ncnc3c2cc1OCCN(C(=O)CN(C)CCO)CC(=O)NCCCc1ccc(Cl)cc1N3
III. COc1cc2ncnc3c2cc1OCCCCCCCCON=Cc1ccc(Cl)cc1N3
## Input List the compounds shown above again, sorted by falling IC50 values. Write the labels, ordered according to the request.
## Output I, II, III
